src = patent US20150299188A1

Tested on: FLAP (5-lipoxygenase activating protein)
Assay: In vitro binding test: displacement of [3H]-7-chloro-3-(5-((3-fluoropyridin-2-yl)methoxy)-2-methylphenyl)-3,4-dihydroquinazolin-2(1H)-one from Sf9 microsome fractions
Design: species or system human and mouse
Details: Sf9 microsome fractions expressing FLAP; 100% = radioligand binding with 10 μM sodium 3-(3-(tert-butylsulfanyl)-1-(4-chlorobenzyl)-5-isopropyl-1H-indol-2-yl)-2,2-dimethylpropanoate, 0% = DMSO; test compound concentration not given
Metric: inhibitory rate (%)
Answers are plain numbers, in %.

Completed entries (count: 3):
- Compound: "Cc1ccc(OCc2c(F)cccc2F)cc1N1Cc2nn(C)cc2NC1=O [Example 236]"
  Quantitative result: 65
- Compound: "Cc1cc2c(cc1N1Cc3c(cc(C4CC4)nc3C3CC3)NC1=O)OC(c1ncccc1F)CC2 (stereo not shown) [Example 52]"
  Quantitative result: 115
- Compound: "Cc1cc2c(cc1N1Cc3c(F)cnc(C4CC4)c3NC1=O)OC(c1ncccc1F)CC2 (stereo not shown) [Example 168]"
  Quantitative result: 91

Now turn to the next compound.
Need inhibitory rate (%) of Cc1ccc(OCc2ncccc2Br)cc1-n1c(=O)[nH]c2ccccc2c1=O [Example 371] , thanks.
96

----------
Assignment: determine reported inhibitory rate (%) for the given molecules.
Tested on: FLAP (5-lipoxygenase activating protein)
Experiment: In vitro binding test: displacement of [3H]-7-chloro-3-(5-((3-fluoropyridin-2-yl)methoxy)-2-methylphenyl)-3,4-dihydroquinazolin-2(1H)-one from Sf9 microsome fractions
Design: species or system human and mouse
Settings: Sf9 microsome fractions expressing FLAP; 100% = radioligand binding with 10 μM sodium 3-(3-(tert-butylsulfanyl)-1-(4-chlorobenzyl)-5-isopropyl-1H-indol-2-yl)-2,2-dimethylpropanoate, 0% = DMSO; test compound concentration not given
One number for each entry, in %.

- Molecule: "Cc1ccc(OCc2c(F)cccc2F)cc1N1Cc2ccc(C#N)cc2NC1=O"
  inhibitory rate (%): 103
- Molecule: "O=C1Nc2cc(CO)nc(C3CC3)c2CN1c1cc2c(cc1Cl)CCC(c1ncccc1F)O2 (stereo not drawn)"
  inhibitory rate (%): 109
- Molecule: "Cc1cc2c(cc1N1Cc3ncccc3NC1=O)OC(c1ncccc1F)CC2 (stereo not drawn)"
  inhibitory rate (%): 99
- Molecule: "Cc1cc2c(cc1N1Cc3c(ccnc3C(=O)NC3CC3)NC1=O)OC(c1ncccc1F)CC2 (stereo not drawn)"
  inhibitory rate (%): 101
- Molecule: "Cc1ccc(OCc2ncccc2F)cc1-n1c(=O)[nH]c2cc([N+](=O)[O-])ccc2c1=O"
  inhibitory rate (%): 102
- Molecule: "Cc1ccc(OCc2ncccc2F)cc1-n1c(=O)[nH]c2ncccc2c1=O"
  inhibitory rate (%): 101
- Molecule: "O=C1Nc2ccccc2CN1c1cc(OCc2ncccc2F)ccc1CN1CCOCC1"
  inhibitory rate (%): 64
- Molecule: "CC(C)(O)c1ccc2c(c1)NC(=O)N(c1cc(OCc3c(F)cccc3F)ccc1CC1CCCCC1)C2"
  inhibitory rate (%): 80

Would you mind listing inhibitory rate (%) for each of the following molecules?
1. Cc1ccc(OCc2ncccc2F)cc1N1Cc2ccc(C(=O)NC(C)C)cc2NC1=O
2. O=C1Nc2c(N3CCOCC3)ncc(Cl)c2CN1c1cc2c(cc1Cl)CCC(c1ncccc1F)O2 (stereo not drawn)
3. Cc1cc2c(cc1N1Cc3c(cc(C4CN(C(=O)n5ccnc5)C4)nc3C3CC3)NC1=O)OC(c1ncccc1F)CC2 (stereo not drawn)
4. O=C1Nc2cc(C3CC3)nc(C3CC3)c2CN1c1ccc2c(c1)OC(c1ncccc1F)CC2 (stereo not drawn)

[104, 102, 120, 118]
